Target: human c-MER catalytic domain (Homo sapiens (Human))
Test: LanthaScreen TR-FRET kinase assay, c-MER
Details: read-out: Mer TK inhibition (IC50); Biochemical IC50, TR-FRET, 10 uM ATP
Measurement Label: IC50

>>> obs_value("C[C@H](N)C(=O)Nc1cccc(CO[C@H]2CCC[C@@H]2NC(=O)c2cc(-c3cnn(C)c3)cnc2N)c1")
"> 1 µM"
>>> obs_value("Cn1cc(-c2cnc(N)c(C(=O)N[C@H]3CCC[C@@H]3OCc3ccc(C#CCCO)cc3)c2)cn1")
"< 0.01 µM"
>>> obs_value("Cn1cc(-c2cnc(N)c(C(=O)N[C@H]3COC[C@@H]3OCc3ccc(-c4ccc(C(C)(C)N5CCN(CCO)CC5)cc4)cc3)c2)cn1")
"< 0.01 µM"
>>> obs_value("C[C@H](COCc1ccc(Cl)cc1)NC(=O)c1cc(-c2cnn(C)c2)cnc1N")
"> 1 µM"
>>> obs_value("Cn1cc(-c2cnc(N)c(C(=O)N[C@H]3CCC[C@@H]3OCc3cccc(C#N)c3)c2)cn1")
"> 1 µM"

// query Read off the recorded IC50 for Cn1cc(-c2cnc(N)c(C(=O)N[C@@H]3[C@@H](COc4ccccc4)CCC3(F)F)c2)cn1 (relative stereo)
// result > 1 µM

// query Read off the recorded IC50 for CC(c1ccc(-c2ccc(CO[C@H]3CCC[C@@H]3NC(=O)c3cccnc3N)cc2)cc1)N1CCN(C)CC1 (stereo partly shown)
// result < 0.01 µM

---

Entries annotated with measured IC50
Biological target: human c-MER catalytic domain (Homo sapiens (Human), UniProt Q12866)
Sequence (Q12866 587-858): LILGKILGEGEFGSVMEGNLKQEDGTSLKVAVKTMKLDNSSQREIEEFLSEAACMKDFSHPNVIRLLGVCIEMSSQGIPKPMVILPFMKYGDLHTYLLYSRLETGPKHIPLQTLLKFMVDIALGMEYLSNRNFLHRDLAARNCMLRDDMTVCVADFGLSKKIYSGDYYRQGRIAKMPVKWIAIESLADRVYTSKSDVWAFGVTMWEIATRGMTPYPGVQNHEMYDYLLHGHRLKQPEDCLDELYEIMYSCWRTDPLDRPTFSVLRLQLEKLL
Assay: LanthaScreen TR-FRET kinase assay, c-MER
Details: read-out: Mer TK inhibition (IC50); Biochemical IC50, TR-FRET, 10 uM ATP

Recorded results for 5 compounds are shown here.
>>> obs_value("CC(c1ccc(-c2ccc(CO[C@H]3CCC[C@@H]3NC(=O)c3cc(Cl)cnc3N)cc2)cc1)N1CCN(C)CC1 (some centres unmarked)")
"< 0.01 µM"
>>> obs_value("CN1CCN(c2ccc(-c3ccc(CO[C@H]4CCC[C@@H]4NC(=O)c4cc(-c5cnn(C)c5)cnc4N)cc3)cc2)CC1")
"< 0.01 µM"
>>> obs_value("CCc1cc(CO[C@H]2CNC[C@@H]2NC(=O)c2cc(-c3cnn(C4CCNCC4)c3)cnc2N)ccc1C")
"< 0.01 µM"
>>> obs_value("CCc1cccc(CO[C@H]2CNC[C@@H]2NC(=O)c2cc(-c3cnn(C)c3)cnc2N)c1")
"< 0.01 µM"
>>> obs_value("C[C@H](COCc1ccc(Cl)c(Cl)c1)NC(=O)c1cc(-c2cnn(C)c2)cnc1N")
"> 1 µM"

Switching to the query record.
// query Give measured IC50 for `CN1CCN(Cc2ccc(-c3ccc(OC[C@H]4CCC[C@@H]4NC(=O)c4cc(-c5cnn(C)c5)cnc4N)cc3)cc2)CC1` (human c-MER catalytic domain (Homo sapiens (Human), UniProt Q12866)).
// result < 0.01 µM

---

Entries annotated with measured IC50
Biological target: human c-MER catalytic domain (Homo sapiens (Human))
Assay: LanthaScreen TR-FRET kinase assay, c-MER
Conditions: read-out: Mer TK inhibition (IC50); Biochemical IC50, TR-FRET, 10 uM ATP

>>> obs_value("Cn1cc(-c2cnc(N)c(C(=O)N[C@H]3CCC[C@@H]3OCc3ccccc3)n2)cn1")
"> 1000 nM"
>>> obs_value("CN1CCN(C(C)(C)c2ccc(-c3ccc(CO[C@H]4COC[C@@H]4NC(=O)c4cc(-c5cnn(C)c5)cnc4N)cc3)cc2)CC1")
"< 10 nM"
>>> obs_value("CN1CCN(Cc2ccc(-c3ccc(CO[C@H]4CCC[C@@H]4NC(=O)c4cc(-c5cnn(C)c5)cnc4N)cc3)cc2[N+](=O)[O-])CC1")
"< 10 nM"

// query Give measured IC50 for `Cn1cc(-c2cnc(N)c(C(=O)N[C@H]3CCC4(OCCO4)[C@@H]3OCc3ccccc3)c2)cn1` (human c-MER catalytic domain (Homo sapiens (Human))).
// result > 1000 nM

// query Give measured IC50 for `CN1CCN(Cc2ccc(-c3ccc(CO[C@H]4CCC[C@@H]4NC(=O)c4cc(-c5cc(F)nc(F)c5)cnc4N)cc3)cc2)CC1` (human c-MER catalytic domain (Homo sapiens (Human))).
// result < 10 nM

// query Give measured IC50 for `C[C@@H](c1ccc(-c2ccc(CO[C@H]3CCC[C@@H]3NC(=O)c3cc(-c4ccc(F)nc4)cnc3N)cc2)cc1)N1CCN(CCO)CC1` (human c-MER catalytic domain (Homo sapiens (Human))).
// result < 10 nM

// query Give measured IC50 for Cn1cc(-c2cnc(N)c(C(=O)N[C@H]3CCC[C@@H]3OCc3cc(F)c(F)cc3F)c2)cn1 (relative stereo) (human c-MER catalytic domain (Homo sapiens (Human))).
// result > 1000 nM

---

Molecular target: human c-MER catalytic domain (Homo sapiens (Human), UniProt Q12866)
Assay: LanthaScreen TR-FRET kinase assay, c-MER
Settings: read-out: Mer TK inhibition (IC50); Biochemical IC50, TR-FRET, 10 uM ATP
pIC50: −log10 of the molar value.
Entries annotated with measured pIC50

Recorded results for 3 molecules are shown here.
>>> obs_value("CC[C@H](COCc1ccccc1)NC(=O)c1cc(-c2cnn(C)c2)cnc1N")
"< 6.00"
>>> obs_value("Cn1cc(-c2cnc(N)c(C(=O)N[C@H]3CCC[C@@H]3COc3cccc(C(=O)N4CCCCC4)c3)c2)cn1")
"< 6.00"
>>> obs_value("CC(c1ccc(-c2ccc(CO[C@H]3CN(C)C[C@@H]3NC(=O)c3cc(-c4cnn(C)c4)cnc3N)cc2)cc1)N1CCN(C)CC1 (stereo partly shown)")
"> 8.00"

// query Give measured pIC50 for `Cc1cccc(-c2cnc(N)c(C(=O)N[C@H]3CCC[C@@H]3OCc3ccc(-c4ccc(CN5CCN(C)CC5)cc4)cc3)c2)c1` (human c-MER catalytic domain (Homo sapiens (Human), UniProt Q12866)).
// result > 8.00

---

Target: human c-MER catalytic domain (Homo sapiens (Human))
Experiment: LanthaScreen TR-FRET kinase assay, c-MER
Details: read-out: Mer TK inhibition (IC50); Biochemical IC50, TR-FRET, 10 uM ATP
pIC50: −log10 of the molar value.
Measurement Label: pIC50

Recorded results for 3 compounds are shown here.
>>> obs_value("Cn1cc(-c2cnc(N)c(C(=O)N[C@@H](CO)C3CCCCC3)c2)cn1 [Example 114]")
"< 6.00"
>>> obs_value("Cn1cc(-c2cnc(N)c(C(=O)N[C@H]3CCC[C@@H]3OCc3ccc(-c4ccc(CN5CCC(O)CC5)cc4)cc3)c2)cn1 [Example 180]")
"> 8.00"
>>> obs_value("CCc1cc(CO[C@H]2CNC[C@@H]2NC(=O)c2cc(-c3ccc(C#N)cc3)cnc2N)ccc1C [Example 400]")
"> 8.00"

Switching to the query record.
// query Give measured pIC50 for CN1CCN(c2ccc(-c3ccc(CO[C@H]4CCC[C@@H]4NC(=O)c4cc(-c5cnn(C)c5)cnc4N)cc3)cn2)CC1 [Example 148] (human c-MER catalytic domain (Homo sapiens (Human))).
// result > 8.00

---

Entries annotated with measured pIC50
Molecular target: human c-MER catalytic domain (Homo sapiens (Human), UniProt Q12866)
Test: LanthaScreen TR-FRET kinase assay, c-MER
Settings: read-out: Mer TK inhibition (IC50); Biochemical IC50, TR-FRET, 10 uM ATP
pIC50: −log10 of the molar value.

Recorded results for 3 compounds are shown here.
>>> obs_value("CN1CCN(Cc2ccc(-c3ccc(CO[C@H]4CN(C)C[C@@H]4NC(=O)c4cc(-c5cnn(C)c5)cnc4N)cc3)cc2C(F)(F)F)CC1")
"> 8.00"
>>> obs_value("Cn1cc(-c2cnc(N)c(C(=O)N[C@H]3CCC[C@@H]3OCc3ccc(-c4ccc(CN5CCNCC5)cc4)cc3)c2)cn1")
"> 8.00"
>>> obs_value("Cn1cc(-c2cnc(N)c(C(=O)N[C@H]3CCC[C@H]3O)c2)cn1 (relative stereo)")
"< 6.00"

Switching to the query record.
// query Give measured pIC50 for `CCc1cc(CO[C@H]2CNC[C@@H]2NC(=O)c2cc(-c3ccc(NS(C)(=O)=O)cc3)cnc2N)ccc1C` (human c-MER catalytic domain (Homo sapiens (Human), UniProt Q12866)).
// result > 8.00

---

Molecular target: human c-MER catalytic domain (Homo sapiens (Human))
Experiment: LanthaScreen TR-FRET kinase assay, c-MER
Conditions: read-out: Mer TK inhibition (IC50); Biochemical IC50, TR-FRET, 10 uM ATP
Measurement Label: IC50

// query Read off the recorded IC50 for Cn1cc(-c2cnc(N)c(C(=O)N[C@H]3CCC[C@@H]3OCc3ccccc3)c2)c(CN2CCCC(O)C2)n1 (stereo partly drawn) [Example 263]
// result > 1 µM

// query Read off the recorded IC50 for Cn1cc(-c2cnc(N)c(C(=O)N[C@H]3CCC[C@@H]3OCc3cccc(O)c3)c2)cn1 [Example 32]
// result > 1 µM

// query Read off the recorded IC50 for CCc1cc(CO[C@H]2CN(C)C[C@@H]2NC(=O)c2cc(-c3cnn(C)c3)cnc2N)ccc1C [Example 426]
// result < 0.01 µM

// query Read off the recorded IC50 for CN1CCN(Cc2ccc(-c3ccc(CO[C@H]4CCC[C@@H]4NC(=O)c4cccnc4N)cc3)cc2C(F)(F)F)CC1 [Example 207]
// result < 0.01 µM

Cited source for all entries: patent US10125118B2
